# ASSAY_NAME: Human liver microsomal stability (DMPK)
# Assay type: in vitro ADME
# CONDITION_SET: pH 7.4; human liver microsomes; read-out: CLint (HLM)
QUANTITY_KIND: microsomal CLint at 1 μM (µL/min/mg)

Here are 3 compounds together with their reported answers.
CN1CCC(c2ccc(Nc3ncnn4cc(-c5cc(F)c(F)c(F)c5)cc34)cc2F)CC1 : 22
CCOc1ccc(-c2cc3c(Nc4ccc(C5CCN(C)CC5)c(F)c4)ncnn3c2)cc1OC : 3
CCOc1c(Cl)cc(-c2cc3c(Nc4ccc(C5CCN(C)CC5)c(F)c4)ncnn3c2)cc1OC : 13

(1) COc1cc(-c2cc3c(Nc4ccc(C5CCN(C)CC5)c(F)c4)ncnn3c2)cc(Cl)c1F
(2) CN1CCC(c2ccc(Nc3ncnn4cc(-c5ccc(C(C)(C)C)cc5)cc34)cc2F)CC1
Q: Given 1 and given 2 , which shows the smaller recorded microsomal CLint at 1 μM? Response format: the label of the selected entry.
A: 1
